B1: KIAA0774 (parent)
chain: FEDEVKRLGWQQQAELQELEERLQ

Variants of: B1
Assay: protein stability index of a GFP-peptide fusion (GPS, HEK-293T) (PSI 1-6); higher = more stable;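 note: lentivirally expressed fusions sorted by FACS into six bins by GFP to DsRed ratio, PSI derived from sequencing read proportions per bin multiplied by bin number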
Conditions: c terminus: a fixed tail appended
Label Satisfied when protein stability index is at or above 4; anything below gets Not satisfied.

> print(dat)
    sequence.change  category.label
 1             E21V       Satisfied
 2             W10C       Satisfied
 3             Q17P       Satisfied
 4              K6H       Satisfied
 5              R7D       Satisfied
 6             L19F       Satisfied
 7             Q13C       Satisfied
 8             Q13K   Not satisfied
 9              F1Y   Not satisfied
10             Q13D       Satisfied
11             L19C       Satisfied
12              E4K   Not satisfied
13             Q13S       Satisfied
14              V5E       Satisfied
15              G9Q   Not satisfied
16             L19M       Satisfied
17             Q11W       Satisfied
18             W10K       Satisfied
19             E20D       Satisfied
20             A14N       Satisfied
21              D3I   Not satisfied
22             W10F       Satisfied
23             Q11T   Not satisfied
24              L8G   Not satisfied
25             R22F       Satisfied
26              K6S       Satisfied
27              E4W   Not satisfied
28             E18Y   Not satisfied
29             Q12F   Not satisfied
30             W10H       Satisfied
31             Q17K       Satisfied
32             Q12V   Not satisfied
33             E21R       Satisfied
34              D3G   Not satisfied
35             Q11V   Not satisfied
36             Q24W   Not satisfied
37              V5L   Not satisfied
38              R7I   Not satisfied
39             E20T   Not satisfied
40              F1K   Not satisfied
41             E15Y   Not satisfied
42             A14C   Not satisfied
43             W10M       Satisfied
44             R22H       Satisfied
45             W10L       Satisfied
46             Q11K       Satisfied
47             E15A   Not satisfied
48             R22S       Satisfied
49             Q17W   Not satisfied
50             E15P   Not satisfied
51              D3E   Not satisfied
52             Q24G       Satisfied
53             E21I   Not satisfied
54              E2V   Not satisfied
55              V5D       Satisfied
56             R22A       Satisfied
57             L19E       Satisfied
58             E15M   Not satisfied
59             Q17I       Satisfied
60              E2M   Not satisfied
61             Q24R       Satisfied
62             E21H       Satisfied
63              V5T   Not satisfied
64             Q12H   Not satisfied
